Recorded melting point values for a group of compounds are listed next.

Field: example entries. Status: answers known.
For the compound shown here, Cc1ccccc1NC(=O)Nc1ccc(CC(=O)NC2CCCN(c3ccc(C(=O)O)cc3)C2)cc1 (stereo not shown) , give the reported melting point. 236 to 238 °C

For the compound shown here, O=C(Cc1ccc2nc(Nc3ccccc3)oc2c1)NCC(=O)Nc1ccc(C(=O)O)cc1 , give the reported melting point. > 280 °C

For the compound shown here, O=C(CN(CCc1ccccc1)C(=O)Cc1ccc2nc(Nc3ccccc3)oc2c1)Nc1ccc(C(=O)O)cc1 , give the reported melting point. 160 to 162 °C

For the compound shown here, COCCCN(CC(=O)N(C)c1ccc(C(=O)O)cc1)C(=O)Cc1ccc(NC(=O)Nc2ccccc2C)cc1 , give the reported melting point. 63 to 64 °C

For the compound shown here, O=C(CN(CCc1ccc(Cl)c(Cl)c1)C(=O)Cc1ccc2nc(Nc3ccccc3)oc2c1)Nc1ccc(C(=O)O)cc1 , give the reported melting point. 170 to 171 °C

More entries:
For the compound shown here, O=C(CN(CCc1ccccn1)C(=O)Cc1ccc2nc(Nc3ccccc3)oc2c1)Nc1ccc(C(=O)O)cc1 , give the reported melting point. 252 to 253 °C

For the compound shown here, O=C(CN(CCc1ccc(Oc2ccc(Cl)cc2)cc1)C(=O)Cc1ccc2nc(Nc3ccccc3)oc2c1)Nc1ccc(C(=O)O)cc1 , give the reported melting point. 156 to 158 °C

Values compiled from patent US20050054582A1.
